Below: a set of entries, each annotated with reported differential viability (reversal).
protocol.details: reversal of MRP1-mediated doxorubicin resistance, pilot screen, H69AR cells, doxorubicin co-treatment (AID 601)
measurement.conditions: H69AR cells + 2 uM doxorubicin, CellTiter-Glo, 72 h; at 10 µM; stronger effect = higher value
experimental.endpoint: differential viability (reversal) (%)

[[record]]
compound = "Cc1cc(NC(=O)C(C)(C)C)no1"
unit_annotation = "%"
test_value = 16

[[record]]
compound = "Clc1ccccc1CN1CCc2sccc2C1"
unit_annotation = "%"
test_value = 19.9

[[record]]
compound = "COc1ccc(N2CCN(C(=O)Cc3ccc(-n4c(=O)[nH]c5ccccc5c4=O)cc3)CC2)cc1"
unit_annotation = "%"
test_value = 3.2

[[record]]
compound = "CN1CCN(c2nc3c(c(=O)[nH]c(=O)n3C)n2CCOc2ccccc2)CC1"
unit_annotation = "%"
test_value = 0.615

[[record]]
compound = "O=C(C1CCN(C2CC(=O)N(c3ccc(F)cc3)C2=O)CC1)N1CCOCC1 (stereo unspecified)"
unit_annotation = "%"
test_value = 4.69

[[record]]
compound = "COc1ccc(N2CCN(c3oc(COc4ccccc4)nc3C#N)CC2)cc1"
unit_annotation = "%"
test_value = -2.02

[[record]]
compound = "Cc1ccc(S(=O)(=O)N2CCN(C(=O)CN3CCOCC3)C2C(C)C)cc1 (stereo unspecified)"
unit_annotation = "%"
test_value = 9.15

[[record]]
compound = "CN=C(Nc1ccc2c(c1)OCO2)SC1CC(=O)N(c2ccccc2)C1=O (stereo unspecified)"
unit_annotation = "%"
test_value = -0.04

[[record]]
compound = "Cn1cnc2c1c(=O)n(Cc1cccc(Br)c1)c(=O)n2C"
unit_annotation = "%"
test_value = 4.32

[[record]]
compound = "NC(=O)C1CCN(C(=S)c2cccs2)CC1"
unit_annotation = "%"
test_value = 11.5

[[record]]
compound = "O=C(CNS(=O)(=O)c1ccccc1)NCc1ccccn1"
unit_annotation = "%"
test_value = 8.75


---

protocol.details: reversal of MRP1-mediated doxorubicin resistance, pilot screen, H69AR cells, doxorubicin co-treatment (AID 601)
measurement.conditions: H69AR cells, CellTiter-Glo, 72 h; compound alone cytotoxicity; at 10 µM
Define the label as Condition met when viability is strictly less than 90% and as Condition not met in all remaining cases.

[[record]]
molecule = "CCCN(CCC)C(=O)C(CCC(=O)O)NC(=O)c1ccccc1 (stereo unspecified)"
category = "Condition not met"

[[record]]
molecule = "CCOC(=O)N1CCC(N(C(=O)Nc2ccc(Cl)c(Cl)c2)C(C)CC)CC1 (stereo unspecified)"
category = "Condition not met"

[[record]]
molecule = "Cc1cc(=O)n2[nH]c(-c3ccc(Cl)cc3)cc2n1"
category = "Condition not met"

[[record]]
molecule = "O=C(CSc1nc2cc(Cl)ccc2s1)N1CCN(C(=O)c2ccco2)CC1"
category = "Condition not met"

[[record]]
molecule = "CCn1ncc(C2=NOC(C(=O)Nc3ccc4c(c3)OCO4)C2)c1C (stereo unspecified)"
category = "Condition not met"

[[record]]
molecule = "COCCNC(=O)NC(=O)COC(=O)Cc1ccc2c(c1)OCCO2"
category = "Condition not met"

[[record]]
molecule = "COc1ccccc1N1CCN(CC(O)COc2cccc3ccccc23)CC1 (stereo unspecified)"
category = "Condition met"

[[record]]
molecule = "Cn1c(Cc2ccccc2)nnc1SCC(=O)c1ccc(Br)s1"
category = "Condition met"

[[record]]
molecule = "COc1ccc(CNC(=O)Cn2nc(C(F)(F)F)c3c2CCC3)cc1"
category = "Condition not met"

[[record]]
molecule = "COc1ccc(-c2noc(-c3ccccc3C(=O)Nc3cccnc3)n2)cc1"
category = "Condition met"

[[record]]
molecule = "COc1ccc(Cn2nnnc2C(c2ccccn2)N2CCN(c3cc(Cl)ccc3C)CC2)cc1 (stereo unspecified)"
category = "Condition met"

[[record]]
molecule = "CCCOc1ccccc1NC(=O)c1ccc(N)cc1"
category = "Condition not met"

[[record]]
molecule = "COc1cccc(OCCOCCN(C)CCO)c1"
category = "Condition not met"

[[record]]
molecule = "S=c1[nH]nc(Cc2ccccc2)n1Cc1ccco1"
category = "Condition not met"

[[record]]
molecule = "O=C(CN1C(=O)c2ccccc2C1=O)Nc1ccc(S(=O)(=O)NCC2CCCO2)cc1 (stereo unspecified)"
category = "Condition not met"

[[record]]
molecule = "c1ccc(-c2oc3ncnc(NCCN4CCOCC4)c3c2-c2ccccc2)cc1"
category = "Condition met"

[[record]]
molecule = "C/C(=C\\c1ccco1)C1C(C#N)=C(N)OC2=C1C(=O)CC(C)(C)C2 (stereo unspecified)"
category = "Condition met"

[[record]]
molecule = "COC(=O)C1=C(C)NC(C)=C(C(=O)OC)C1C(=O)OC1CCCCC1=O (stereo unspecified)"
category = "Condition not met"

[[record]]
molecule = "CCCCOC(=O)Cn1c(=N)n(CCN2CCOCC2)c2ccccc21"
category = "Condition not met"

[[record]]
molecule = "COc1cc(C(=O)N(C)c2nnc(-c3cccnc3)s2)cc(OC)c1OC"
category = "Condition met"

[[record]]
molecule = "O=c1c2cc3ccccc3n2cnn1Cc1ccccc1F"
category = "Condition met"

[[record]]
molecule = "CC(=O)Nc1c(O)[nH]c2ccccc12"
category = "Condition not met"

[[record]]
molecule = "CCc1c(C(=O)NCCc2ccc(OC)c(OC)c2)[nH]c(C)c1C(C)=O"
category = "Condition met"

[[record]]
molecule = "Cc1ccc(NC2=NCC(=O)N2c2ccc3c(c2)OCCO3)c(C)c1"
category = "Condition not met"

[[record]]
molecule = "CCOc1ccc2[nH]c(O)c(NC(C)=O)c2c1"
category = "Condition not met"

[[record]]
molecule = "CC(C)(C)c1ccc(O)c(N)c1"
category = "Condition not met"

[[record]]
molecule = "Clc1ccccc1-c1nnc2sc(-c3ccccn3)nn12"
category = "Condition met"

[[record]]
molecule = "CCN(CC)S(=O)(=O)c1ccc(NC(=O)c2cccc3c2C(=O)N(CCOC)C3)cc1"
category = "Condition not met"

[[record]]
molecule = "O=C(CCCCCn1c(=S)[nH]c2cc3c(cc2c1=O)OCO3)N1CCN(Cc2ccccc2)CC1"
category = "Condition met"

[[record]]
molecule = "CCN(CC)C(=O)C1CCC(CNS(=O)(=O)c2cccc3cccnc23)CC1 (stereo unspecified)"
category = "Condition not met"

[[record]]
molecule = "O=c1c[n+]([O-])c2ccccc2n1OCc1ccccn1"
category = "Condition not met"

[[record]]
molecule = "COc1ccc(-c2nc(C)sc2CC(=O)O)cc1"
category = "Condition not met"

[[record]]
molecule = "COc1cccc(/C(O)=C2/C(=O)C(=O)N(CCN3CCOCC3)C2c2cccnc2)c1 (stereo unspecified)"
category = "Condition not met"

[[record]]
molecule = "C=CCN=C1SCC(=O)N1S(=O)(=O)c1ccc(C)cc1"
category = "Condition not met"

[[record]]
molecule = "CCn1c2ccccc2c2cc(NC(=O)Cc3ccc(S(=O)(=O)N4CCOCC4)s3)ccc21"
category = "Condition met"

[[record]]
molecule = "COc1ccc(Cl)cc1N1CCN(CCNC(=O)Nc2ccccc2C)CC1"
category = "Condition met"

[[record]]
molecule = "COc1ccc(C(NC(C)=O)c2ccc3cccnc3c2O)c(OC)c1 (stereo unspecified)"
category = "Condition met"

[[record]]
molecule = "CC(=O)C1=C(O)C(=O)N(C2CCCCC2)C1c1ccccc1 (stereo unspecified)"
category = "Condition not met"

[[record]]
molecule = "CCc1noc(C)c1C(=O)NCCc1ccc(OC)c(OC)c1"
category = "Condition not met"

[[record]]
molecule = "OC(CN1CCOCC1)Cn1c(-c2cccc(Cl)c2)nc2ccccc21 (stereo unspecified)"
category = "Condition met"

[[record]]
molecule = "O=C(O)COc1cccc(NC(=O)C2CCCO2)c1 (stereo unspecified)"
category = "Condition not met"

